Biological target: T1, apical domain of human CD71 (human, UniProt P02786 189-383, limits assumed)
T1 construct: domain: apical domain; the panning antigen was 30% biotinylated; also called human apical domain of CD71
T1 sequence (P02786 189-383 limits assumed): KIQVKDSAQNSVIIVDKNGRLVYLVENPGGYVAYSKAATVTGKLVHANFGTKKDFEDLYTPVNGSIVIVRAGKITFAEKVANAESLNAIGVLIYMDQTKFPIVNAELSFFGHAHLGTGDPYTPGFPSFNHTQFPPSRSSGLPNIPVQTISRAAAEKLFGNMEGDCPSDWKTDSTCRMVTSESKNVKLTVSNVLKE
Assay: primary ELISA; signal on apical domain over signal on HSA
quantityName: Apical domain:HSA (ratio)
# number only, unit ratio dropped from output

# input binder: CD71-binding FN3 domain of SEQ ID NO: 103 (designed binder, Screen 1 hit, tested from colonies in the primary ELISA; not shown: C-terminal poly-histidine tag added to each FN3 domain) MLPAPKNLVVSRVTEDSARLSWTAPDAAFDSFYIAYAEPRPDGEAIILGVPGSERSYDLTGLKPGTEYSVLIHGVKGGLLSSPLSAYSTT ; wanted: its Apical domain:HSA
291

Would you mind doing CD71-binding FN3 domain of SEQ ID NO: 101 (designed binder, Screen 1 hit, tested from colonies in the primary ELISA; not shown: C-terminal poly-histidine tag added to each FN3 domain) MLPAPKNLVVSRVTEDSARLSWTAPDAAFDSFGIGYWERRWYGEAIVLTVPGSERSYDLTGLKPGTEYEVTIRGVKGGGYSGPLSAIFTT as well?
125
